# System: Influenza type A (strain A/PR/8/34, ATCC VR-95)
# Assay overview: Influenza antiviral assay: inhibition of virus-induced cytopathic effects (CPE) in MDCK cells, XTT dye reduction
# Format: cell-based
# Condition details: Influenza A virus, H1N1 / PR/8, MDCK, 96 h, strain A/PR/8/34, MDCK cells, CPE inhibition at 4 days
Quantity measured: EC50

The examples below pair each entry with its known result.
{"Molecule": "CC(C)N1CN(C23c4ccccc4CC2(C)Cc2c3ccc(F)c2F)n2ccc(=O)c(O)c2C1=O (centres unmarked)", "EC50": "< 125 nM"}
{"Molecule": "O=C1c2c(O)c(=O)ccn2N(C23c4ccccc4CC2Cc2c(F)cccc23)CN1CC1CCCCO1 (centres unmarked)", "EC50": "125 to 250 nM"}
{"Molecule": "CN1CN(C23c4ccccc4CC2Cc2cccc(F)c23)n2ccc(=O)c(O)c2C1=O (centres unmarked)", "EC50": "< 125 nM"}

Fill in EC50 for record O=C1c2c(O)c(=O)ccn2N(C23c4ccccc4CC2Cc2c3ccc(F)c2F)CN1CC1CCOCC1 (centres unmarked)
< 125 nM

Fill in EC50 for record COC12Cc3ccccc3C1(N1CN(C)C(=O)c3c(O)c(=O)ccn31)c1ccccc1C2 (centres unmarked)
125 to 250 nM

Fill in EC50 for record CN1CN(C23c4ccccc4CC2(C)Cc2ccccc23)n2ccc(=O)c(O)c2C1=O (centres unmarked)
< 125 nM

Fill in EC50 for record CC(CCN1CN(C23c4ccccc4CC2Cc2ccccc23)n2ccc(=O)c(O)c2C1=O)c1ccccc1 (centres unmarked)
> 500 nM

Fill in EC50 for record O=C1c2c(O)c(=O)ccn2N(C23c4ccccc4CC2Cc2c(F)cccc23)CN1CCF (centres unmarked)
< 125 nM
